Source of measurements: ChEMBL document CHEMBL3885861

- Organism: Rattus norvegicus
- run description: Open TG-GATES - Regimen: Single
- Type: toxicity, organism-based, Sprague-Dawley
- Set-up: regimen Single, gender Male, age 6 weeks
- settings: in vivo, po, 1000 mg/kg, 3 h, tissue Plasma, route gavage, dose level High
Please respond with reported ALT for every item in the list.
Hi! Could you send only the number? It should be in IU/L, unit omitted.

QUERY: # return recorded ALT for entry CCc1cc(C(N)=S)ccn1 [ETHIONAMIDE]
RESULT: 33.6

QUERY: Indicate its recorded ALT; the compound in question is Clc1ccccc1CN1CCc2sccc2C1 [TICLOPIDINE]
RESULT: 36

QUERY: Input O=C(O)c1cn(C2CC2)c2cc(N3CCNCC3)c(F)cc2c1=O [CIPROFLOXACIN] , output reported ALT.
RESULT: 36.8

QUERY: State its ALT for this compound: C[C@H](CS)C(=O)N1CCC[C@H]1C(=O)O [CAPTOPRIL]
RESULT: 37

QUERY: Note ALT for the compound shown: O=C(O)c1cc(/N=N/c2ccc(S(=O)(=O)Nc3ccccn3)cc2)ccc1O [SULFASALAZINE]
RESULT: 39.4
